molecular target: TASK1 (human) (Homo sapiens, UniProt O14649); assay: Activity on the TASK-1 channel with the FLIPR technique on CHO cells; type: cell-based; set-up: expressed in transfected cells; host or cells: CHO cells; settings: inhibition of human TASK-1 current, 10 μmol/l
Sequence (O14649 whole entry): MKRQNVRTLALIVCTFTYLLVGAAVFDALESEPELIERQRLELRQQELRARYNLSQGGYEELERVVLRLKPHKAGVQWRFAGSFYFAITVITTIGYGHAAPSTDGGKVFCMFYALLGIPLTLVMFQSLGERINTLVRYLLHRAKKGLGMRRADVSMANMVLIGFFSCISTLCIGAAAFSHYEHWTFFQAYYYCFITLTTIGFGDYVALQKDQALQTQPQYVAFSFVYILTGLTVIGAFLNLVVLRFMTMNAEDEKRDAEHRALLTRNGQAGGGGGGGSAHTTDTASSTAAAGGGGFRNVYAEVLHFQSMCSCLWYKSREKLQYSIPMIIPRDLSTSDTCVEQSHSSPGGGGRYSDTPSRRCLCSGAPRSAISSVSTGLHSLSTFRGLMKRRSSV
Category key, based on recorded inhibition at 10 µM: group 1 = under 60%, group 2 = from 60% up to 80%, group 3 = 80% and over

Q. Could you place `COc1ccc(CC(=O)NCc2ccccc2-c2cc(Cl)ccc2C(=O)NCc2ccc(F)cc2F)cc1` in its proper category? Many thanks.
A. group 2

Q. # bin lookup: classify `CC(C)CCNC(=O)c1cccc(-c2ccncc2CNC(=O)OCc2ccccc2)c1` by its inhibition at 10 µM
A. group 2

Q. State the class of the molecule shown: `C[C@H](OC(=O)NCc1ccccc1-c1cccnc1C(=O)NCCc1ccccn1)c1ccccc1`
A. group 2

Q. Could you place `COc1ccc(CC(=O)NCc2ccccc2-c2ccccc2C(=O)NCCc2cccnc2)cc1` in its proper category? Many thanks.
A. group 2

Q. Sort into band: `COc1ccc(CC(=O)NCc2ccccc2-c2sccc2C(=O)NCc2ccc(F)cc2F)cc1`
A. group 3

Q. Hey, which category is CCCCS(=O)(=O)Nc1ccccc1C(=O)N[C@@H](CC)c1ccc(OC)nc1 [Example 1 (S-enantiomer)] in, do you know?
A. group 1

Q. Place this molecule in its band: `O=C(NCc1ccccc1-c1ncccc1C(=O)NCc1ccc(F)cc1F)OCc1ccccc1`
A. group 1

Q. Band assignment needed for `COc1ccc(CC(=O)NCc2ccccc2-c2ccsc2C(=O)NCc2ccc(F)cc2F)cc1` please.
A. group 2

Q. The entry to classify is `CN(CCc1ccccn1)C(=O)c1ccccc1-c1ccccc1CNC(=O)OCc1ccccc1` ; which class holds it?
A. group 1

Q. Which category does the recorded inhibition at 10 µM put `C[C@H](OC(=O)NCc1ccccc1-c1ccccc1C(=O)NC[C@@H](C)O)c1ccccc1` in?
A. group 3

---

molecular target: human TASK-3 channel (Homo sapiens); assay: Activity on the TASK-3 channel by patch-clamp on CHO cells; conditions: whole cell, CHO cells expressing human TASK-3, read-out: IC50 (μmol/l) TASK3 (human)
Sequence (Q9NPC2 whole entry): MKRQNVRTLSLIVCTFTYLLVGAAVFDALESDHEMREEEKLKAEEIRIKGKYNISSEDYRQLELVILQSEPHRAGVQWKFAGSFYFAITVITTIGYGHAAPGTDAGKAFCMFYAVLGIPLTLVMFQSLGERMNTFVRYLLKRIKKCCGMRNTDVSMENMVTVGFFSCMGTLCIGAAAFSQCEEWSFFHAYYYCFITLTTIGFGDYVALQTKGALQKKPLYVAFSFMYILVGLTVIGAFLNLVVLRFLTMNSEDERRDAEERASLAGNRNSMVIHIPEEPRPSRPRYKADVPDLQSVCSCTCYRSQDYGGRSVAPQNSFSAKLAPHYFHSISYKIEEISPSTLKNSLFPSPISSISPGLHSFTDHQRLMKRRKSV
VALUE TYPE: IC50

Q. Item under review: CCCCS(=O)(=O)Nc1ccccc1C(=O)N[C@H](CC)c1ccc(OC)nc1 [Example 1 (R-enantiomer)] . Reported IC50?
A. 1 µmol/L

---

target: TASK1 (human) (Homo sapiens, UniProt O14649); test: Activity on the TASK-1 channel with the FLIPR technique on CHO cells; assay type: cell-based; parameters: expressed in transfected cells; host or cells: CHO cells; conditions: inhibition of human TASK-1 current, 10 μmol/l
Structures can show the parent of a compound that is named as a salt.
VALUE TYPE: inhibition at 10 µM (%)
# number only, unit % dropped from output

Q. Notebook: pull reported inhibition at 10 µM for TASK1 (human) (Homo sapiens, UniProt O14649), entry `COc1ccc(CC(=O)NCc2ccccc2-c2ccc(C(=O)NCc3ccc(F)cc3F)o2)cc1`
A. 60

Q. What value of inhibition at 10 µM on TASK1 (human) (Homo sapiens, UniProt O14649) does `COc1ccc(CC(=O)NCc2ccccc2-c2occc2C(=O)NCCC(C)C)cc1` have?
A. 61

Q. Look up inhibition at 10 µM with TASK1 (human) (Homo sapiens, UniProt O14649) for this compound: CCCCS(=O)(=O)Nc1ccccc1C(=O)N[C@H](CC)c1ccc(OC)nc1 [Example 1 (R-enantiomer)]
A. 81

Q. Give recorded inhibition at 10 µM with TASK1 (human) (Homo sapiens, UniProt O14649) for the following compound: CC[C@H](NC(=O)c1cc(F)ccc1NS(=O)(=O)c1cccc2cccnc12)c1ccccc1 [Example 3, sodium salt]
A. 82
